Assignment: determine reported pH 2 solubility for the given molecules.
Conditions: 0.1N HCl, 1.0% DMSO, 24-hour incubation at ambient temperature, maximum theoretical 100 μM; first value of the cell
One number for each entry, in μM.

item-smiles	units-label	quantitative-readout
C[C@@H](C(=O)OCN(c1nn(CC(F)(F)F)c2c(-c3ccc(C#CC(C)(C)S(C)(=O)=O)nc3[C@H](Cc3cc(F)cc(F)c3)NC(=O)Cn3nc(C(F)(F)F)c4c3C(F)(F)[C@@H]3C[C@H]43)ccc(Cl)c12)S(C)(=O)=O)N(C)C	μM	45

Now, please, on to the next molecule.
Noted for CN(CCC(=O)O)C(=O)N(c1nn(CC(F)(F)F)c2c(-c3ccc(C#CC(C)(C)S(C)(=O)=O)nc3[C@H](Cc3cc(F)cc(F)c3)NC(=O)Cn3nc(C(F)(F)F)c4c3C(F)(F)[C@@H]3C[C@H]43)ccc(Cl)c12)S(C)(=O)=O : its pH 2 solubility reads 1

Where these numbers come from: patent US12404262B2
